Task for the reader: assign each of the following compounds its reported MIC Staphylococcus aureus SMITH (GC 4543).
System: Staphylococcus sp.
Assay: In vitro antibacterial evaluation: minimum inhibitory concentration (MIC), broth dilution method
Format: cell-based
Conditions: broth dilution, 18 hours at 35° C.
Give the value, in units of µg/mL, as a plain number.

Problem: Item CC(c1ccccc1)C1NC(=O)CNC(=O)C(CO)NC(=O)C(C(O)C2CNC(=N)N2C2OC(CO)C(O)C(O)C2O)NC(=O)C(C(O)C2CNC(=N)N2)NC(=O)C(Cc2ccc3oc(SCc4ccc5ccccc5c4)nc3c2)NC1=O (stereo not drawn) [Example 46] : provide MIC Staphylococcus aureus SMITH (GC 4543)
Solution: 4

Problem: In one line, give reported MIC Staphylococcus aureus SMITH (GC 4543) of the entry CC(c1ccccc1)C1NC(=O)CNC(=O)C(CO)NC(=O)C(C(O)C2CN(Cc3ccc(-c4ccccc4)cc3)C(=N)N2C2OC(CO)C(O)C(O)C2O)NC(=O)C(C(O)C2CNC(=NCc3ccc(-c4ccccc4)cc3)N2Cc2ccc(-c3ccccc3)cc2)NC(=O)C(Cc2ccc(OC3OC(CO)C(OC4OC(CO)C(O)C(O)C4O)C(O)C3O)cc2)NC1=O (stereo not drawn) [Example 66] .
Solution: 8

Problem: For the compound CC(c1ccccc1)C1NC(=O)CNC(=O)C(CO)NC(=O)C(CC2CN(Cc3ccccc3)C(=N)N2C2OC(CO)C(O)C(O)C2O)NC(=O)C(CC2CNC(=N)N2)NC(=O)C(Cc2ccc(OC3OC(CO)C(OC4OC5COC6(OC5C(O)C4O)C4CC5CC(C4)CC6C5)C(O)C3O)cc2)NC1=O (stereo not drawn) [Example 80] , give its measured MIC Staphylococcus aureus SMITH (GC 4543) value.
Solution: 32

Problem: Give MIC Staphylococcus aureus SMITH (GC 4543) for CC(c1ccccc1)C1NC(=O)CNC(=O)C(CO)NC(=O)C(C(O)C2CNC(=N)N2C2OC(CO)C(O)C(O)C2O)NC(=O)C(C(O)C2CNC(=N)N2)NC(=O)C(Cc2ccc3oc(C=C(c4ccccc4)c4ccccc4)nc3c2)NC1=O (stereo not drawn) [Example 39]
Solution: 16

Problem: Recall and state the measured MIC Staphylococcus aureus SMITH (GC 4543) for CC(c1ccccc1)C1NC(=O)CNC(=O)C(CO)NC(=O)C(C(O)C2CNC(=N)N2C2OC(CO)C(O)C(O)C2O)NC(=O)C(C(O)C2CNC(=N)N2)NC(=O)C(Cc2ccc3oc(SCc4ccc(-c5ccccc5)cc4)nc3c2)NC1=O (stereo not drawn) [Example 47] .
Solution: 8
